Parameter: TGI. Scope: all listed entries.
System: TK-10 renal
run_description: NCI tumour cell line growth inhibition, 48 h
value_type: TGI (µM)

• COc1ccc(/C=C2/CN(C(=O)c3ccccc3F)C/C(=C\c3ccc(OC)cc3)C2=O)cc1 = 17.7
• COc1c2nc(CCl)n(C)c(=O)c2c(OC)c2c(=O)n(C)c(CCl)nc12 = 1.76
• CN(C)[C@@H]1C(=O)C(C(N)=O)=C(O)[C@@]2(O)C(=O)C3=C(O)c4c(O)cccc4C[C@H]3C[C@@H]12 = 7.53

====

The following compounds are listed with their measured TGI values.
Tested on: SW-620 colon
run_description: NCI tumour cell line growth inhibition, 48 h
value_type: TGI

* COc1ccc(C2SCC(=O)N2N=C2NC(=O)CC(=O)N2)cc1 (stereo not given) | > 100 µM
* CSc1nc2c(c(N(C)C)n1)C=Nn1c(nc3ccccc31)S2 | > 100 µM
* O=C1Nc2ccccc2C(=O)OC(Cc2ccccc2)=Nc2ccccc21 | > 100 µM
* CC(=O)[CH-]C(=O)c1ccccc1.CC(=O)[CH-]C(=O)c1ccccc1.[Nd+3].[OH-].[OH3+] | > 100 µM
* COc1ccc(C2CC(c3cc4c(C)c(C(=O)c5ccccc5)oc4cc3O)=Nc3ccccc3S2)cc1OC (stereo not given) | > 100 µM
* Cc1cc(Br)c(N2C3=C(CC4=C2CCCC4=O)C(=O)CCC3)c(Br)c1 | > 100 µM
* C[C@@H]1O[C@@H](O[C@H]2C[C@@H](O)[C@]3(CO)C4C(CC[C@]3(O)C2)[C@@]2(O)CC[C@H](C3=CC(=O)OC3)[C@@]2(C)C[C@H]4O)[C@H](O)[C@H](O)[C@H]1O (stereo not given in full) | 0.0869 µM
* NC1=CN(CCCO)C2=N/C(=C\c3ccco3)C(=O)N12 | > 100 µM
* COc1ccc(C(=O)C2CC3(CCC2(O)c2ccc(OC)cc2)CC(=O)Nc2ccccc2C3=O)cc1 (stereo not given) | > 100 µM
* CN(C)CCC1(C2=CCCC2)CC/C(=C\c2ccc3c(c2)OCO3)C1=O (stereo not given) | 29.9 µM
